- Procedure Summary: solvent given as SMILES
- Measurement Parameters: in CO

Compound	emission maximum / nm
CCNc1ccc(NCC)c2c1C(=O)c1ccccc1C2=O	669
CCc1c(C)[nH]c(C2=[N+]3C(=Cc4c(C)cc(C)n4[B-]3(F)F)c3ccccc32)c1C	631
CN(CC(O)c1cccc(O)c1)c1ccc([N+](=O)[O-])c(C2CC(c3cccc4ccccc34)=NN2c2ccccc2)c1 (stereo not drawn)	514
Cc1nc2c(ccc3c2sc(/C=C/c2cc4c5c(c2)CCCN5CCC4)[n+]3C)s1	622
CN(C)c1ccc(C2=Cc3ccc4ccccc4[n+]3[B-](F)(F)O2)cc1	564
CC1(C)CC(/C=C/c2cn(-c3ccccc3)nc2-c2ccccc2)=CC(=C(C#N)C#N)C1	561
CC(C)(C)c1ccc(C(C)(C)C)c(N2C(=O)c3cccc4c(-c5ccc(-c6ccccc6)s5)ccc(c34)C2=O)c1	572
CNC1=C2C=CC=[N+]2[B-](F)(F)n2cccc21	440
C#CCNC1=C2C=CC=[N+]2[B-](F)(F)n2cccc21	464.5
CC(C)(C)c1ccc(-c2cc3c4c(c2)CCc2cc(-c5ccc(C(C)(C)C)cc5)cc(c2-4)CC3)cc1	381.87
CC1(C)C(/C=C/C2=C(Cl)C(=C/C=C3/N(CCCS(=O)(=O)[O-])c4ccccc4C3(C)C)/CCC2)=[N+](CCCS(=O)(=O)[O-])c2ccccc21	802
Cc1cc(C)cc(NC(=O)c2sc(Br)nc2C)c1	402
CN(C)c1ccc(C#Cc2ccc(C#N)cc2)cc1	547.02
CCOC(=O)COc1ccc(/C=C/C2=C3c4ccccc4C(c4ccc[nH]4)=[N+]3[B-](F)(F)n3ccc(C)c32)cc1	624
CCCN1/C(=C/C=C(/C=C/C2=[N+](CCC)c3ccccc3C2(C)C)c2ccc([N+](=O)[O-])cc2)C(C)(C)c2ccccc21	656
O=C1C=CC2=Cc3ccccc3B(O)N12	416
CN(C)c1ccc(-c2cc3ccc([N+](=O)[O-])cc3c(=O)o2)cc1	605
CN(C)c1ccc(C2=Cc3c4ccccc4c4ccccc4[n+]3[B-](F)(F)O2)cc1	559
CC(C)c1ccc2ccc3c(C(C)C)ccc4ccc1c2c43	380
N[C@@H](Cn1nnc2cc(-c3ccc(-c4ccsc4)cc3)ccc21)C(=O)O	384
CC1=[N+]2C(=C(c3ccc(N4CCCCC4)cc3)c3ccc(C)n3[B-]2(F)F)C=C1	518
CN(C)c1ccc(C(=O)c2ccccc2)cc1	480
Cc1ccc(C2=C3C=CC(C#Cc4ccccc4)=[N+]3[B-](F)(F)n3c(Cl)ccc32)cc1	569
C(=C\c1nc2ccccc2[nH]1)/c1ccc(/C=C/c2nc3ccccc3[nH]2)cc1	422
O=C1c2ccccc2-c2c(-c3cc(Cl)ccc3O)[nH]c(=O)n21	493
COc1ccc(-c2cc(-c3ccc(OC)cc3)c3c(N)nc(N4CCCC4)c(C#N)c3n2)cc1	515
CC1(C)C(/C=C/C2=C(c3ccc(C(=O)O)cc3)C(=C/C=C3/N(CCCS(=O)(=O)[O-])c4ccc5ccccc5c4C3(C)C)/CCC2)=[N+](CCCS(=O)(=O)[O-])c2ccc3ccccc3c21	811
c1ccc(C2CSC(c3c4ccc(=[N+]5CCCCC5)cc-4oc4cc(N5CCCCC5)ccc34)SC2)cc1 (stereo not drawn)	606.35
CC[n+]1c(C=C2C(=O)C(C=C3N(C)c4ccc(Cl)cc4C3(C)C)=C2[O-])sc2ccccc21	653
Cc1ccc(-c2nc(-c3cccc(O)c3)[nH]c2-c2ccc(C)cc2)cc1	399
CC1(C)C2=[N+](CCCCCC(=O)NCCCNC(=O)CCCCCN3/C(=C/C=C/C=C/C=C/2)C(C)(C)c2cc(S(=O)(=O)[O-])ccc23)c2ccc(S(=O)(=O)[O-])cc21	776
Cc1cc(O)c(C(C)C)cc1/N=C/c1ccc(O)cc1	416
CC(=O)c1ccc2ccc3cccc4ccc1c2c34	443
CCN(CC)c1ccc2cc(-c3cn4ccccc4n3)c(=O)oc2c1	485
CN(C)c1ccc(/C=C/C=C/c2nc3ccccc3o2)cc1	539
C1=CN2C[n+]3cccc(OCc4ccccc4)c3N=C2C(OCc2ccccc2)=C1	487
Cc1cc(C(F)(F)F)nc2c1ccc1nc(-c3ccc(F)c(F)c3)cn12	456
Cc1ccc(C2CC(c3ccc(O)cc3)=NN2c2ccc(S(N)(=O)=O)cc2)cc1 (stereo not drawn)	432

----------
- Procedure Summary: solvent given as SMILES
- Measurement Parameters: in CCO
Measurement Label: emission maximum (nm)

                            chemical_string  measurement_label  readout_units  observed_value
0  O=Cc1ccc(-c2ccc(-c3nc4ccccc4s3)c(O)c2)o1   emission maximum             nm             530
1  O=c1c2cc(F)c(N3CCCCC3)cc2oc2cc(N3CCCCC3)c(F)cc12   emission maximum             nm             457
2  CCC1=C(C)C2=C(c3c4ccccc4c(-c4ccccc4)c4ccccc34)c3c(C)c(CC)c(C)n3[B-](F)(F)[N+]2=C1C   emission maximum             nm             538
3  CCC1=C(C)C2=C(c3ccc(-c4c5ccccc5c(-c5ccccc5)c5ccccc45)cc3)c3c(C)c(CC)c(C)n3[B-](F)(F)[N+]2=C1C   emission maximum             nm             537
4  CC(C)(C)c1ccc(-c2cc3c4c(c2)CCc2cc(-c5ccc(C(C)(C)C)cc5)cc(c2-4)CC3)cc1   emission maximum             nm          382.73
5                     Cc1cc2cc3ccccc3cc2cn1   emission maximum             nm          437.06
6  O=Cc1ccc(-c2ccc(O)c(-c3nc4ccccc4s3)c2)s1   emission maximum             nm             558
7  Cc1ccc(C2=C3C=C(I)C=[N+]3[B-](F)(F)n3cc(I)cc32)cc1   emission maximum             nm             573

----------
In this section, each of the compounds is paired with its reported emission maximum.
- Procedure Summary: solvent given as SMILES
- Measurement Parameters: in c1ccccc1
Measurement Label: emission maximum (nm)

>>> df
                            chemical_string  measurement_label  readout_units  observed_value
0  CCCCN(CCCC)c1ccc(C#Cc2cc(C#Cc3ccc(N(CCCC)CCCC)cc3)c(C#Cc3ccc(C#N)cc3)cc2C#Cc2ccc(C#N)cc2)cc1   emission maximum             nm             512
1           CN(C)c1ccc2c(c1)C(=O)c1ccccc1-2   emission maximum             nm             644
2  Cc1cc(C(F)(F)F)nc2c1ccc1nc(-c3ccc(F)c(F)c3)cn12   emission maximum             nm             450
3    C#CCNC1=C2C=CC=[N+]2[B-](F)(F)n2cccc21   emission maximum             nm             485
4               Nc1ccc2c(c1)C(=O)c1ccccc1-2   emission maximum             nm             622

----------
- Procedure Summary: solvent given as SMILES
- Measurement Parameters: in C1CCOC1
So basically: emission maximum at 500 nm or higher? That is YES. Lower than 500 nm? That is NO.

Molecule	Discrete Label
CC1=N/C(=C\c2cc(C#N)cc(N(C)C)c2)C(=O)N1C	YES
CN(C)c1ccc(C2=Cc3cc(Cl)nc[n+]3[B-](F)(F)O2)cc1	YES
CC1=CC(c2ccc(N(C)C)cc2)=[N+]2C1=Nc1c(C)cc(-c3ccc(N(C)C)cc3)n1[B-]2(F)F	YES
FC(F)(F)C(F)(F)C(F)(F)C1=NC2=C(Sc3ccccc3)C=C3c4cc(Sc5ccccc5)c5nc(C(F)(F)C(F)(F)C(F)(F)F)nc6c(Sc7ccccc7)cc(c4c56)=C4C=C(Sc5ccccc5)C(=N1)C2C34 (stereo not drawn)	YES
Cc1ccc(C2=[N+]3C(=Cc4ccc(C)n4[B-]3(F)F)c3ccccc32)[nH]1	YES
CC1CC=C(c2ccc(-c3ccc(C=O)s3)s2)CC1 (stereo not drawn)	NO
Cc1cc(C)c(B(c2c(C)cc(C)cc2C)c2cc3cc(N(C)C)c4ccccc4c3c3c2ccc2ccccc23)c(C)c1	YES
COc1cc2oc(=O)c3c4ccc(N(C)C)cc4c4ccc5cccc6c(c1)c2c3c4c56	YES
Cc1ccc(-c2c3ccc([nH]3)c3nc(c(-c4ccc([N+](=O)[O-])cc4)c4ccc([nH]4)c4ccc([nH]4)c(-c4ccc(C)cc4)c4ccc2o4)C=C3)cc1	YES
CN(C)c1ccc(C(=Cc2ccc(/C=C/c3ccc(C#N)cc3)cc2)c2ccc(N(C)C)cc2)cc1	NO
COC(=O)C(Cc1ccc2oc(-c3ccc(N(C)C)cc3)nc2c1)NC(=O)OC(C)(C)C (stereo not drawn)	NO
c1cc2c3c4c5c(cccc5cc3c1)-c1cccn1B4n1cccc1-2	YES
O=C1OC(=O)c2cc(Oc3ccccc3)c3c4ccc5c6c(cc(Oc7ccccc7)c(c7ccc1c2c73)c64)C(=O)OC5=O	YES
CN(C)c1ccc(/C=C/c2nc3ccccc3s2)cc1	NO
Cc1ccc(C2=C3C=CC([Te]c4ccccc4)=[N+]3[B-](F)(F)n3c([Te]c4ccccc4)ccc32)cc1	YES
O=c1oc2cccc3c4cccc5ccc6c7cc(F)ccc7c1c(c23)c6c54	NO
OC1(c2ccc(-c3cccs3)s2)CCC1	NO
CC1=N/C(=C\c2ccc(C#N)c(N(C)C)c2)C(=O)N1C	YES
O=C(O)c1ccccc1Nc1cccc(C(F)(F)F)c1	NO
CCc1c(C)[nH]c(C2=[N+]3C(=Cc4c(C)cc(C)n4[B-]3(F)F)c3ccccc32)c1C	YES
CCCCOc1cc(C=C2c3ccccc3-c3ccccc32)c(OCCCC)cc1C=C1c2ccccc2C=Cc2ccccc21	NO
F[B-]1(F)n2c(-c3ccccc3)cc(-c3ccccc3)c2C(c2ccccc2)=C2C(c3ccccc3)=CC(c3ccccc3)=[N+]21	YES
CC(C)(C)c1cc2c3c(c1)-c1cccc4c1N(B3N1c3ccccc3Sc3cccc-2c31)c1ccccc1S4	YES
CCCN1C(=O)c2c3c(c4c(c2C1=O)CCc1cc(-c2ccc(N(C)C)cc2)c(OC)cc1-4)-c1cc(OC)c(-c2ccc(N(C)C)cc2)cc1CC3	YES
N=c1oc2ccccc2cc1-c1ccc([N+](=O)[O-])cc1	NO
COc1cc2c(cc1-c1ccc(C)cc1)Cc1c3c(c4c(c1-2)-c1cc(OC)c(-c2ccc(C)cc2)cc1C4)C(=O)N(CCC(C)C)C3=O	NO
N#Cc1coc2ccccc2c1=O	NO
Oc1ccc(C2=N[N+]3=Cc4c(ccc5ccccc45)O[B-]3(c3ccc([B-]45OC(c6ccc(O)cc6)=N[N+]4=Cc4c(ccc6ccccc46)O5)cc3)O2)cc1 (stereo not drawn)	NO
CSc1ccc(/C=C/c2cnc3ccccc3n2)cc1	NO

// provenance: the Deep4Chem optical property database
